System: carrageenan foot edema
Assay: Rat Carrageenan Foot Pad Edema Test
Format: in vivo, rat (Male Sprague-Dawley)
Conditions: @ 20 mg/kg body weight, oral, 3 hours after carrageenan, read-out: RAT PAW EDEMA % Inhibition
Description: Male Sprague-Dawley rats were selected in each group so that the average body weight was as close as possible. Rats were fasted with free access to water for over sixteen hours prior to the test. […] One hour later a subplantar injection of 0.1 mL of 1% solution of carrageenan/sterile 0.9% saline was administered and the volume of the injected foot was measured with a displacement plethysmometer connected to a pressure transducer with a digital indicator. […]
# reported inhibition at 20 mg/kg; entries follow
Report only the number, with the unit % understood.

INSERT INTO assay_data (smiles_entry, unit_abbreviation, reported_value) VALUES
  ('CCCCNc1nc(-c2ccc(F)cc2)c(-c2ccc(S(C)(=O)=O)cc2)s1', '%', 12);

-- ask Reported inhibition at 20 mg/kg for CS(=O)(=O)c1ccc(-c2sc(NCc3ccccc3)nc2-c2ccc(F)cc2)cc1 : what is it?
-- reply 42

-- ask Reported inhibition at 20 mg/kg for COc1ccc(OCc2nc(-c3ccc(F)cc3)c(-c3ccc(S(C)(=O)=O)cc3)s2)cc1 : what is it?
-- reply 4

-- ask Reported inhibition at 20 mg/kg for Cc1nc(-c2nc(-c3ccc(F)cc3)c(-c3ccc(S(C)(=O)=O)cc3)s2)cs1 : what is it?
-- reply 19

-- ask Reported inhibition at 20 mg/kg for CS(=O)(=O)c1ccc(-c2sc(-c3ccccc3Cl)nc2-c2ccccc2F)cc1 : what is it?
-- reply 16

-- ask Reported inhibition at 20 mg/kg for CS(=O)(=O)c1ccc(-c2sc(COc3cccc(Cl)c3)nc2-c2ccc(F)cc2)cc1 : what is it?
-- reply 9

-- ask Reported inhibition at 20 mg/kg for CS(=O)(=O)c1ccc(-c2sc(-c3ccncc3)nc2-c2ccc(F)cc2)cc1 : what is it?
-- reply 12

-- ask Reported inhibition at 20 mg/kg for CS(=O)(=O)c1ccc(-c2sc(-c3ccccc3Cl)nc2-c2ccc(F)cc2)cc1 : what is it?
-- reply 50

-- ask Reported inhibition at 20 mg/kg for Cc1nc(-c2ccc(S(C)(=O)=O)cc2)c(-c2ccc(F)cc2)s1 : what is it?
-- reply 48

-- ask Reported inhibition at 20 mg/kg for CS(=O)(=O)c1ccc(-c2sc(-c3ccccc3Cl)nc2-c2ccc(Cl)cc2)cc1 : what is it?
-- reply 14

-- ask Reported inhibition at 20 mg/kg for CS(=O)(=O)c1ccc(-c2sc(-c3ccc(F)c(Cl)c3)nc2-c2ccc(F)cc2)cc1 : what is it?
-- reply 53

-- ask Reported inhibition at 20 mg/kg for CS(=O)(=O)c1ccc(-c2sc(C(F)(F)F)nc2-c2ccc(F)cc2)cc1 : what is it?
-- reply 39.5

-- ask Reported inhibition at 20 mg/kg for CS(=O)(=O)c1ccc(-c2sc(COc3cc(Cl)cc(Cl)c3)nc2-c2ccc(F)cc2)cc1 : what is it?
-- reply 36

The measured values listed here are drawn from patent US5668161A.
